- Test system: HL-60
- ASSAY SUMMARY: Induction of apoptosis in human HL60 cells at 80 uM after 6 hrs by fluorescence microscopy
- Type: functional
I would appreciate it if you labelled entries t when Activity is 20% or higher, otherwise f.

The examples below pair each entry with its known result.
{"MOLECULE": "CC(=O)O/N=C1\\CC[C@]2(C)C3C(=O)C=C4[C@@H]5C[C@](C)(C(=O)O)CC[C@]5(C)CC[C@@]4(C)[C@]3(C)CC[C@H]2C1(C)C (stereo not given in full)", "CLASS ASSIGNMENT": "f"}
{"MOLECULE": "CC1(C)/C(=N/O)CC[C@]2(C)C3C(=O)C=C4[C@@H]5C[C@](C)(C(=O)O)CC[C@]5(C)CC[C@@]4(C)[C@]3(C)CC[C@@H]12 (stereo not given in full)", "CLASS ASSIGNMENT": "t"}
{"MOLECULE": "CCO/N=C1\\CC[C@]2(C)C3C(=O)C=C4[C@@H]5C[C@](C)(C(=O)O)CC[C@]5(C)CC[C@@]4(C)[C@]3(C)CC[C@H]2C1(C)C (stereo not given in full)", "CLASS ASSIGNMENT": "t"}
{"MOLECULE": "CO/N=C1\\CC[C@]2(C)C3C(=O)C=C4[C@@H]5C[C@](C)(C(=O)O)CC[C@]5(C)CC[C@@]4(C)[C@]3(C)CC[C@H]2C1(C)C (stereo not given in full)", "CLASS ASSIGNMENT": "t"}
{"MOLECULE": "CCCO/N=C1\\CC[C@]2(C)C3C(=O)C=C4[C@@H]5C[C@](C)(C(=O)OC)CC[C@]5(C)CC[C@@]4(C)[C@]3(C)CC[C@H]2C1(C)C (stereo not given in full)", "CLASS ASSIGNMENT": "f"}

Activity >= 20% for CC1(C)[C@@H](O)CC[C@]2(C)C3C(=O)C=C4[C@@H]5C[C@](C)(C(=O)O)CC[C@]5(C)CC[C@@]4(C)[C@]3(C)CC[C@@H]12 (stereo not given in full) ?
t

Activity >= 20% for CCC(=O)O/N=C1\CC[C@]2(C)C3C(=O)C=C4[C@@H]5C[C@](C)(C(=O)O)CC[C@]5(C)CC[C@@]4(C)[C@]3(C)CC[C@H]2C1(C)C (stereo not given in full) ?
t

Activity >= 20% for CCCO/N=C1\CC[C@]2(C)C3C(=O)C=C4[C@@H]5C[C@](C)(C(=O)O)CC[C@]5(C)CC[C@@]4(C)[C@]3(C)CC[C@H]2C1(C)C (stereo not given in full) ?
t

Activity >= 20% for CC1(C)C(=O)CC[C@]2(C)C3C(=O)C=C4[C@@H]5C[C@](C)(C(=O)O)CC[C@]5(C)CC[C@@]4(C)[C@]3(C)CC[C@@H]12 (stereo not given in full) ?
t

Activity >= 20% for CCO/N=C1\CC[C@]2(C)C3C(=O)C=C4[C@@H]5C[C@](C)(C(=O)OC)CC[C@]5(C)CC[C@@]4(C)[C@]3(C)CC[C@H]2C1(C)C (stereo not given in full) ?
f
